Tested on: Wolbachia pipientis
Test: Anti-Wolbachia Cell-Based Screen
Assay type: functional
Set-up: scale not given: in the data most compounds retested in dose-response had high values
Conditions: 5 µM
Among all 48,000 compounds or so, about 13,000 (27%) showed an effect of 50% or more. The list shows a part of the results.
Entries and their Percent Effect values follow.
Form entry: value (%) — number only.

>  <molecule>
CC(C)N1CCC[C@H]1C(=O)NCC1CCN(c2cnn(C)c(=O)c2)CC1

>  <Percent Effect [%]>
-21.78

$$$$

*Q* Name the recorded Percent Effect for CCCOC(=O)NCCC1CN(c2cnn(C)c(=O)c2)CCO1 (stereo not drawn) .
*A* 96.42

*Q* Name the recorded Percent Effect for CCS(=O)(=O)c1ccc(N2CCC(NC(=O)NC(C)CO)CC2)cc1 (stereo not drawn) .
*A* 0.3155

The values you see were collected from ChEMBL document CHEMBL3988442.
